Target: β-lactamase, Escherichia freundii GN 346 (Citrobacter freundii)
Sequence (Q46041 entry or part of it): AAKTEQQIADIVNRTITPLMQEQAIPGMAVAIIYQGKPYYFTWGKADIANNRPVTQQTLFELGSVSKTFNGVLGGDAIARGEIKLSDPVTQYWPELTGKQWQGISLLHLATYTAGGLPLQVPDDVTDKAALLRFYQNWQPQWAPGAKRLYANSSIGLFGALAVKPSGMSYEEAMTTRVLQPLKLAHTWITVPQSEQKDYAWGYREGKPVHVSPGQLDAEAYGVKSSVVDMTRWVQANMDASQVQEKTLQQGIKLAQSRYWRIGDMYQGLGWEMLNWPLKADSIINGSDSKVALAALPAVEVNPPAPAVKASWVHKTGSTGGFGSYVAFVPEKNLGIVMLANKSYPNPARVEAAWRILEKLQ
Assay: Resistant activity against β-lactamase, iodometric assay
Format: biochemical
Conditions: control Cephalorizine = 100
Description: (4) Resistant activity of each cephalosporin compound against β-lactamase, Proteus vulgaris GN 76 and Escherichia freundii GN 346: The resistant activity of each cephalosporin compound against β-lactamase was measured in the manner described below. β-lactamase was prepared from Proteus vulgaris GN 76 and Escherichia freundii GN 346. […] By using the supernatant of enzyme fluid, the stability of each compound against β-lactamase was determined by the iodometric assay method. […]
Classify on Relative activity (%) against β-lactamase, E. freundii GN 346 using bin 0: < 0.2%; bin 1: ≥ 0.2% and < 1%; bin 2: ≥ 1%

- molecule: "CCN1CCN(C(=O)NC(C(=O)NC2C(=O)N3C(C(=O)O)=C(COC(C)=O)CSC23)c2ccc(O)cc2)C(=O)C1=O (single isomer, unassigned)"
  qualitative label: "bin 1"
- molecule: "CCCCCCCCN1CCN(C(=O)N[C@@H](C(=O)NC2C(=O)N3C(C(=O)O)=C(CSc4nnnn4C)CSC23)c2ccccc2)C(=O)C1=O (single isomer, unassigned)"
  qualitative label: "bin 0"
- molecule: "O=C(Cc1cccs1)N[C@@H]1C(=O)N2C(C(=O)[O-])=C(C[n+]3ccccc3)CS[C@H]12 [Cephalorizine, reference compound]"
  qualitative label: "bin 2"
- molecule: "CC(=O)OCC1=C(C(=O)O)N2C(=O)[C@@H](NC(=O)Cc3cccs3)[C@H]2SC1 [Sodium Cephalothin, reference compound]"
  qualitative label: "bin 2"
- molecule: "CC(=O)OCC1=C(C(=O)O)N2C(=O)[C@@H](NC(=O)[C@H](N)c3ccccc3)[C@H]2SC1 [Sodium Cephaloglycin, reference compound]"
  qualitative label: "bin 1"
- molecule: "CC1=C(C(=O)O)N2C(=O)[C@@H](NC(=O)[C@H](N)c3ccccc3)[C@H]2SC1 [Sodium Cephalexin, reference compound]"
  qualitative label: "bin 2"
- molecule: "CCN1CCN(C(=O)NC(C(=O)NC2C(=O)N3C(C(=O)O)=C(CSc4nnnn4C)CSC23)c2ccccc2)C(=O)C1=O (stereo not drawn)"
  qualitative label: "bin 0"

IN: Which band does CCCCN1CCN(C(=O)NC(C(=O)NC2C(=O)N3C(C(=O)O)=C(CSc4nnnn4C)CSC23)c2ccccc2)C(=O)C1=O (single isomer, unassigned) fall in?
OUT: bin 0

// data source = patent US4327097A
